assay: Aqueous solubility; format: physicochemical; settings: aqueous (not further specified); Table 3; read-out: Aqueous Solubility
Would you mind classing the entries by solubility? Ranges: low (below 20 µM), intermediate (20 µM to below 40 µM), high (40 µM or more)

Some entries whose results are on file:
>>> df
                                   molecule   group_label
0  COc1c(Br)cc2c(=O)cc(-c3ccc(O)c(Cl)c3)oc2c1Br [JKT.748A]  intermediate
1  O=c1cc(-c2ccc(O)c(Cl)c2)oc2c(Br)cccc12 [JKT.749A]  intermediate
2  O=c1cc(-c2ccc(O)c(C(F)(F)F)c2)oc2c(Br)cccc12 [JKT.751A]           low

Now for another entry.
Class label required: O=c1cc(-c2ccc(O)c(Cl)c2)oc2c(Br)cc(Cl)cc12 [JKT.722A] intermediate

====

experiment: Aqueous solubility; type: physicochemical; details: Table 10; read-out: Solubility
experimental_readout: solubility (µM)
// return numeric value only (unit: µM, not printed)

>>> df
                                   molecule  experimental_readout  unit_info  reported_value
0  O=C1/C(=C/c2ccoc2)Oc2c(Br)cc(Br)cc21 [JKT.638A]            solubility         µM            30.2

Given the molecule O=C1/C(=C/c2ccco2)Oc2c(Br)cc(Br)cc21 [JKT.637A] , write its reported solubility. 52.4

State its solubility for this molecule: O=C1/C(=C/c2ccc(O)c(Br)c2)Oc2c(Br)cc(Br)cc21 [JKT.634A] 25.5

Quickly give me recorded solubility for O=C1/C(=C/c2ccc(O)c(C(F)(F)F)c2)Oc2c(Br)cc(Br)cc21 [JKT.635A] 22

Look up and report measured solubility for this entry: O=C1/C(=C/c2ccc(-c3nnn[nH]3)cc2)Oc2c(Br)cc(Br)cc21 [JKT.633A] 102

Look up and report measured solubility for this entry: O=C1/C(=C/c2ccc(O)cc2)Oc2c(Br)cc(Br)cc21 [JKT.629A] 5.6

Input O=C1/C(=C/c2cccc(O)c2)Oc2c(Br)cc(Br)cc21 [JKT.631A] , output reported solubility. 22.6

Find the measured solubility of COc1cc(/C=C2\Oc3c(Br)cc(Br)cc3C2=O)ccc1O [JKT.630A] and report it. 3

====

molecular target: CK2A1 (Homo sapiens, UniProt P68400); construct: purchased Eurofins; test: Radiometric kinase assay (Eurofins), CK2A1; type: biochemical; conditions: Table 4; read-out: CK2A1 RAD IC50
Sequence (P68400 whole entry): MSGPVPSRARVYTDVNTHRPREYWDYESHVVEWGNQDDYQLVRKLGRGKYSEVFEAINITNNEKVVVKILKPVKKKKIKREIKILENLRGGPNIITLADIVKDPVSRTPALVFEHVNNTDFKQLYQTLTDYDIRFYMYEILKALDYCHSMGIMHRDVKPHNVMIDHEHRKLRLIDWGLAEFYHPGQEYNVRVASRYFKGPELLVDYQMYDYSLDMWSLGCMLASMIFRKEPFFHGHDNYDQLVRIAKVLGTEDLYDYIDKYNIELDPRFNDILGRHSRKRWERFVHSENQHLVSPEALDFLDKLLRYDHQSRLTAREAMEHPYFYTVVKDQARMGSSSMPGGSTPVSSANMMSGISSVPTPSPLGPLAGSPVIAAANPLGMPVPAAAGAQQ
Collected pIC50 values appear next to each entry.
Hey, just a heads up that pIC50 is the negative log base 10 of the concentration in molar.

Report pIC50 for O=c1cc(-c2cc(Br)c(O)cn2)oc2c(Br)cccc12 [JKT.980A] 7.28

Item O=c1cc(-c2ccc(O)c(Cl)n2)oc2c(Br)cc(Br)cc12 [JKT.801A] : provide pIC50 7.62

Give recorded pIC50. O=c1cc(-c2ccc(O)c(Br)n2)oc2c(Br)cc(Br)cc12 [JKT.844A] 6.58

Provide one value: measured pIC50 of O=c1cc(-c2cc(Br)c(O)cn2)oc2c(Br)cc(Br)cc12 [JKT.923A] 7.96

Using the record for O=c1cc(-c2ccc(O)c(Br)c2)oc2c(Br)nc(Br)cc12 [JKT.909A] , state its measured pIC50. 8.22

====

biological target: CK2A1 (Homo sapiens, UniProt P68400); construct: purchased Eurofins; experiment: Radiometric kinase assay (Eurofins), CK2A1; format: biochemical; details: Table 3; halogenated flavones; read-out: CK2A1 RAD IC50
Overview of recorded pIC50 for various compounds
Field pIC50 (float): negative decimal logarithm of the concentration in molar.

In [3]: df
Out[3]:
                                   compound                        assayed_target  reported_value
0  O=c1cc(-c2ccc(O)c(I)c2)oc2c(Br)cc(Br)cc12 [JKT.724A]  CK2A1 (Homo sapiens, UniProt P68400)            7.72

Tell me pIC50 reported for O=c1cc(-c2ccc(O)c(C(F)(F)F)c2)oc2c(Br)cccc12 [JKT.751A] 6.20

Return reported pIC50. Input compound: O=c1cc(-c2ccc(O)c(Br)c2)oc2c(Br)cccc12 [JKT.744B] 7.89

Could you please provide reported pIC50 for O=c1cc(-c2ccc(O)c(Cl)c2)oc2c(Br)cccc12 [JKT.749A] ? Thanks! 7.96

Consider the compound O=c1cc(-c2ccc(O)c(Cl)c2)oc2c(Br)cc(Cl)cc12 [JKT.722A] and give its recorded pIC50. 8.00

Answer with the recorded pIC50 for the compound listed here: O=c1cc(-c2ccc(O)c(Br)c2)oc2c(Br)cc(Cl)cc12 [JKT.714A] 7.92

Look up pIC50 of O=c1cc(-c2ccc(O)c(Br)c2)oc2c(Cl)cccc12 [JKT.777A] and report it. 7.70

Look up and report measured pIC50 for this entry: COc1ccc2c(=O)cc(-c3ccc(O)c(Cl)c3)oc2c1Br [JKT.787A] 7.62

Look up and state reported pIC50 for O=c1cc(-c2ccc(O)c(Cl)c2)oc2c(Cl)cc(Cl)cc12 [JKT.725A] 7.82

Complete the entry with pIC50 for O=c1cc(-c2ccc(O)c(Br)c2)oc2c(Cl)cc(Cl)cc12 [JKT.715A] 7.74

====

test: Aqueous solubility; assay type: physicochemical; settings: aqueous medium (not further specified); Table 8; read-out: Aqueous Solubility
experimental_readout: solubility (µM)
Response body: numeric value in µM, unit text excluded.

Before answering, review these 5 worked examples.
                                   compound  experimental_readout  unit_info  reported_value
0  O=c1[nH]c(-c2ccc(O)c(Br)c2)nc2c(Cl)cc(Cl)cc12 [JKT.805A]            solubility         µM             4.2
1  O=c1[nH]c(-c2cc(Cl)c(O)c(Cl)c2)nc2c(Br)cc(Br)cc12 [JKT.773B]            solubility         µM            24.1
2  O=c1[nH]c(-c2cc(F)c(O)c(F)c2)nc2c(Br)cc(Br)cc12 [JKT.774A]            solubility         µM             152
3  O=c1[nH]c(-c2ccc(O)c(C(F)(F)F)c2)nc2c(Br)cccc12 [JKT.831A]            solubility         µM             139
4  COc1cc(-c2nc3c(Br)cccc3c(=O)[nH]2)ccc1O [JKT.832A]            solubility         µM              61

Indicate its recorded solubility; the compound in question is O=c1[nH]c(-c2ccc(O)c(Cl)c2)nc2c(Cl)cc(Cl)cc12 [JKT.806A] 17

====

Tested on: IL-6 secretion
Assay: IL-6 secretion assay in astrocytes (Promega Lumit IL-6 kit)
Format: cell-based, human
Settings: Homo sapiens, Astrocyte; Table 11; read-out: IL6-Inhib.
Protocol: IL-6 secretion assay. HCAs were plated at 20,000 cells per well in white clear bottom 96-well plates. Two to three days later, media was removed and replaced with media containing 10 ng/mL IL1B and compound dilution series. Five hours later, plates were processed using the Lumit IL-6 Assay Kit (Promega W6030) according to the manufacturer's instructions. • ^1Radiometric kinase assay from Eurofins. Performed in astrocytes with a Promega Lumit IL-6 kit. […]
pIC50: −log10 of the molar value.
Kindly return True if reported pIC50 is no lower than 5; return False if it is lower.

// inclusive: pIC50 at least 5? input: COc1c(Br)cc2c(c1Br)O/C(=C\c1ccc(C(=O)O)cc1)C2=O [JKT.765A] False

Assess whether reported pIC50 for COc1c(Br)cc2c(c1Br)O/C(=C\c1ccc(O)c(C(F)(F)F)c1)C2=O [JKT.763A] sits at 5 or higher. True

Quick check, pIC50 >= 5? O=C1/C(=C/c2ccc(O)c(Cl)c2)Oc2c(Br)cc(Br)cc21 [JKT.726A] True

====

target: CK2A2 (Homo sapiens); construct: purchased Eurofins; test: Radiometric kinase assay (Eurofins), CK2A2; type: biochemical; details: Table 6; quinolinones; read-out: CK2A2 RAD IC50
Sequence (P19784 whole entry): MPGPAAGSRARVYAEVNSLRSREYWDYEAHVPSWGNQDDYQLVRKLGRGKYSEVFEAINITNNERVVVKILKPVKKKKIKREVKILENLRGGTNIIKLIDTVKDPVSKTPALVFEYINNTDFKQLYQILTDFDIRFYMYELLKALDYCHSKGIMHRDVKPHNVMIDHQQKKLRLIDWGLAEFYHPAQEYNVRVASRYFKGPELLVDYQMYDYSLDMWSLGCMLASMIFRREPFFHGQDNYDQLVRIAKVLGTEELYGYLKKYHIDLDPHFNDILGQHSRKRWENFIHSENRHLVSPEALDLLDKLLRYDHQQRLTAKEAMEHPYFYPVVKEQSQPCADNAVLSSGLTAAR
experimental_readout: IC50 (nM)
Numeric only. Scale: nM

                                   compound  reported_value
0  O=c1cc(-c2ccc(O)c(Br)c2)[nH]c2c(Br)cc(Br)cc12 [JKT.944A]             123

Could you now consider this next compound?
Fill in reported IC50 for this entry: COc1cc(-c2cc(=O)c3cc(Br)cc(Br)c3[nH]2)ccc1O [JKT.736A] 15
